# Tested on: HCT-15 colon
# Method description: NCI tumour cell line growth inhibition, 48 h
Property measured: TGI

Compound	TGI
C[C@H]1[C@H](C)CC[C@]2(C(=O)OC3OC(CO)C(O)C(O)C3O)CC[C@]3(C)C(=CC[C@@H]4[C@@]5(C)C[C@H]6OC(=O)c7cc(O)c(O)c(O)c7-c7c(cc(O)c(O)c7O)C(=O)O[C@@H]6C(CO)(CO)[C@@H]5CC[C@]43C)[C@H]12 (stereo partly drawn)	> 100 µM
Cc1ccc(NC(=O)/C(Cc2cc(=O)oc3cc(O)ccc23)=N\NC(=O)C[N+](C)(C)C)cc1C	> 100 µM

Now look at this one.
The compound CSc1nc2c(ncn2C2OC(CO)C(O)C(O)C2O)c(=O)[nH]1 (stereo not drawn) showed TGI equal to > 100 µM

###

Reported TGI values follow for various compounds
# System: EKVX NSCLC
# Method description: NCI tumour cell line growth inhibition, 48 h

Reference set (5 entries):
Compound	Property measured	Experimental value
O=C(CC1(O)C(=O)Nc2c(Cl)ccc(Cl)c21)c1ccc(Cl)cc1Cl (configuration not stated)	TGI	44 µM
O=S1CSSC1	TGI	77.8 µM
Cn1c(=O)nc2n(-c3ccc(Cl)c(C(F)(F)F)c3)c3ccccc3nc-2c1=O	TGI	> 83.9 µM
CC1=NNC(=O)C1C1CC(c2c[nH]c3ccccc23)=NN=C1Cl (configuration not stated)	TGI	> 100 µM
Nc1nc(Nc2ccccc2)sc1C(=O)c1ccco1	TGI	38.7 µM

# TGI (compound: COc1ccc(C(=O)c2nc3ccccc3n2CC(=O)c2ccc(Cl)cc2)cc1 ) is > 100 µM

Per the records, this compound ( CC(=Nc1ccc(S(N)(=O)=O)cc1)c1c(O)[nH]c2ccccc12 ) has TGI equal to > 25 µM

###

List of log10 of TGI values.
# Tested on: NCI-H226 lung
# Method description: NCI tumour cell line growth inhibition, 48 h
Base-10 log of TGI, unit µM.

Worked set:
Compound	log10 of TGI
C[C@]12C/C(=C/O)C(=O)C(O)=C1CC[C@@H]1C2CC[C@@]2(C)C1CC[C@@H]2O (stereo partly specified)	1.57
Cc1c(C(=O)/C=C/c2ccccc2[N+](=O)[O-])[n+](=O)c2ccccc2n1[O-]	1.38
CC(=O)Oc1c(C)c(C)c2c(c1C)CCC(C)(CC(=O)OCCCCCCCCCCC[P+](c1ccccc1)(c1ccccc1)c1ccccc1)O2 (stereo unspecified)	1.40
Cc1cc(O)c(-c2cc(O)c(C)cc2O)cc1O	1.67
O=S1CSSC1	1.86

Input O=C1CS(=O)(=O)C(c2cccc(Oc3ccccc3)c2)N1c1cc(Cl)ccc1Cl (stereo unspecified) . Output log10 of TGI: 1.62

According to the records, this compound Nc1ccccc1C(=O)C(Br)C(Br)c1ccc2c(c1)OCO2 (stereo unspecified) displays log10 of TGI of 1.72

Measured log10 of TGI of COC(=O)N1N=C(c2ccccc2)C1c1ccccc1 (stereo unspecified) : 1.89

Record C=C1C(=O)C23C(O)C1CC[C@H]2C12CCCC(C)(COC(C)=O)[C@H]1[C@H](O)[C@]3(O)OC2 (stereo partly specified) , field log10 of TGI: 0.76

Entry c1ccc2c(c1)CCCC/C2=N/OCC1CO1 (stereo unspecified) ; log10 of TGI = 1.96

Reported log10 of TGI ( COc1ccc(Oc2cnn(C(Br)(Br)C(C)=O)c(=O)c2Br)cc1 ) = 1.67

// CC1(C)CC(C#Cc2ccccc2)CC(C)(C)N1O : log10 of TGI value = 1.73

So, CC1OC(c2ccc3c(c2O)C(=O)C2=C(C3=O)C3(O)C(=O)CC(C)(O)CC3(O)C=C2)CC(O)C1O (stereo unspecified) ? Its log10 of TGI was 1.70

Item: CC(C)[Si](OC/C(=C/COC(C)(C)C)[C@H]1CC=C(C(=O)c2ccccc2N2CN(C)C(=O)N(C)C2)C1)(C(C)C)C(C)C | log10 of TGI: 1.46

// sample CCNCCNc1cc(-c2ccc(C#N)cc2)c(C#N)c2nc3ccccc3n12 , its log10 of TGI was 1.08

The recorded log10 of TGI for CCCCCCCCCCCC1CC(=O)NCCCN(C)CCCCN(C)CCCN1C (stereo unspecified) is 0.54

log10 of TGI reading for O=[N+]([O-])c1ccc2c(c1)c(N=NC(=S)Nc1ccc(Cl)cc1)c(O)n2CN1CCOCC1 : 1.37
